Molecular target: human FXR (Homo sapiens, UniProt Q96RI1)
Construct: expressed in transfected cells; host or cells: HepG2
Sequence (Q96RI1 whole entry): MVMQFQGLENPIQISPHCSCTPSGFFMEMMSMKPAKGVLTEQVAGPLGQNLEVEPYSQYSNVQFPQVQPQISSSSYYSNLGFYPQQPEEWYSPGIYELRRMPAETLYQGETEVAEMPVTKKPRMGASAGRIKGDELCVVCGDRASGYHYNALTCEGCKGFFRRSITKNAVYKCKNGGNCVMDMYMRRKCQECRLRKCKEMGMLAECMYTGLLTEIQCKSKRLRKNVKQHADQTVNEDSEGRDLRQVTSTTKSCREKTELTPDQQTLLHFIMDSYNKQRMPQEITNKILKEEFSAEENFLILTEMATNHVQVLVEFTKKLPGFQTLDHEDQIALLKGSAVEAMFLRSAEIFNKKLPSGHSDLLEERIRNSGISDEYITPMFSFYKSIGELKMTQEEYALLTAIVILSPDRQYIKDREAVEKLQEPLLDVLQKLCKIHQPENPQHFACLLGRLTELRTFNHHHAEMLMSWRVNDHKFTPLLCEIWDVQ
Sequence (P19793 whole entry partner): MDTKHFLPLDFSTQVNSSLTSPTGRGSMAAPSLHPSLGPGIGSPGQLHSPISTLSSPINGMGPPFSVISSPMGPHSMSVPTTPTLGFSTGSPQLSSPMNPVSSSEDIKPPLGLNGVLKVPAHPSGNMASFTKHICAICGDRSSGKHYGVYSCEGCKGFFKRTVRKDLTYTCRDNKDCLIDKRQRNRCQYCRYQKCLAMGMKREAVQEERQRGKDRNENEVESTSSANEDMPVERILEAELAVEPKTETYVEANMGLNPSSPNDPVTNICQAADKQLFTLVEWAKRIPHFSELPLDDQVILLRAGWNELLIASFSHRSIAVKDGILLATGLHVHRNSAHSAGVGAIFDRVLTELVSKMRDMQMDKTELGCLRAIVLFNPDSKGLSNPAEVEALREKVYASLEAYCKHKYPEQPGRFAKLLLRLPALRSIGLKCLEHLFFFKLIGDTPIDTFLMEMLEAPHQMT
Experiment: FXR transactivation luciferase reporter assay in HepG2 cells
Type: cell-based
Settings: maximum efficacy of compound (10 µM) relative to 6-ECDCA (1 µM) set as 100%; FRE transactivation, HepG2 cells
Give label 1 when the value for FXR Eff (%) vs 6-ECDCA is at least 30%. Give label 0 when it is less.

Solved cases (5 shown):
1) CCC(C)C1CCC2C3C(O)C(CC)C4CCCCC4(C)C3CCC12C (stereo not drawn); label 0
2) C=CC(C)C1CCC2C3C(O)C(CC)C4CCCCC4(C)C3CCC12C (stereo not drawn); label 0
3) CCC(C)C1CCC2C3C(O)C(CC)C4CC(O)CCC4(C)C3CCC12C (stereo not drawn); label 1
4) C=CC(C)C1CCC2C3C(O)C(CC)C4CC(O)CCC4(C)C3CCC12C (stereo not drawn); label 1
5) CCC1C(O)C2C3CCC(C(C)CO)C3(C)CCC2C2(C)CCCCC12 (stereo not drawn); label 1

Now consider a different molecule.
Ask: Evaluate CCC1C(O)C2C3CCC(C(C)CO)C3(C)CCC2C2(C)CCC(O)CC12 (stereo not drawn) : FXR Eff (%) vs 6-ECDCA at minimum 30%?
Reply: label 1
